Molecular target: HLA-B*18:01
Experiment: IEDB peptide-MHC binding, purified MHC/competitive/fluorescence; filed as Kd, often an IC50 or EC50 that approximates it; bounds were set here for any values at or beyond the usual limits of such assays
Conditions: source organism: Giardia lamblia ATCC 50803
measurement-name: Kd

**Query** Can you look up the measured Kd of MARPADASM for me?
**Result** ≥ 20 µM

====

Biological target: HLA-A*02:19
Experiment: IEDB peptide-MHC binding, purified MHC/direct/fluorescence; filed as Kd, often an IC50 or EC50 that approximates it; bounds were set here for any values at or beyond the usual limits of such assays
Details: source organism: Entamoeba histolytica HM-1:IMSS
pKd: −log10 of the molar value.
measurement-name: pKd

**Query** So what's the measured pKd for this one? FIILSTGKY
**Result** ≤ 4.70

====

Biological target: HLA-A*01:01
Assay: IEDB peptide-MHC binding, purified MHC/direct/fluorescence; filed as Kd, often an IC50 or EC50 that approximates it; bounds were set here for any values at or beyond the usual limits of such assays
Settings: source organism: Escherichia coli O157:H7
measurement-name: pKd
Answers are plain numbers, as −log10 of the molar value.

**Query** Give the reported pKd for PSSKPDWFY (system: HLA-A*01:01).
**Result** 7.71

====

Molecular target: HLA-A*02:12
Experiment: IEDB peptide-MHC binding, purified MHC/direct/fluorescence; filed as Kd, often an IC50 or EC50 that approximates it; bounds were set here for any values at or beyond the usual limits of such assays
Settings: source organism: Brucella suis 1330
measurement-name: Kd (nM)
Numbers only, in nM.

**Query** I am curious: what Kd value has been reported for KLYERNTAF ?
**Result** 88

====

Target: HLA-B*48:01
Experiment: IEDB peptide-MHC binding, purified MHC/direct/fluorescence; filed as Kd, often an IC50 or EC50 that approximates it; bounds were set here for any values at or beyond the usual limits of such assays
Details: source organism: Shigella sonnei Ss046
pKd: −log10 of the molar value.
measurement-name: pKd

**Query** # query: pKd of entry VLDMGDPVK
**Result** ≤ 4.70

====

Molecular target: HLA-B*15:01
Assay: IEDB peptide-MHC binding, purified MHC/direct/fluorescence; filed as Kd, often an IC50 or EC50 that approximates it; bounds were set here for any values at or beyond the usual limits of such assays
Details: source organism: Influenza A virus (A/Duck/Shantou/1881/00(H9N2))
measurement-name: pKd
Answers are plain numbers, as −log10 of the molar value.

**Query** Which measured pKd belongs to SLPPNFSSL , tested on HLA-B*15:01?
**Result** 6.94

====

Target: HLA-B*40:01
Experiment: IEDB peptide-MHC binding, purified MHC/competitive/radioactivity; filed as Kd, often an IC50 or EC50 that approximates it; bounds were set here for any values at or beyond the usual limits of such assays
Conditions: source organism: Mammarenavirus machupoense
measurement-name: Kd (µM)
Numbers only, in µM.

**Query** Please give the measured Kd for this sequence: ADMSKLLNL
**Result** 6.25

====

Target: HLA-A*29:02
Assay: IEDB peptide-MHC binding, purified MHC/direct/fluorescence; filed as Kd, often an IC50 or EC50 that approximates it; bounds were set here for any values at or beyond the usual limits of such assays
Settings: source organism: Influenza A virus (A/England/654/2007(H1N1))
pKd: −log10 of the molar value.
measurement-name: pKd

**Query** Report pKd for WTGMVDGWY please.
**Result** ≤ 4.70

====

Molecular target: HLA-A*24:03
Assay: IEDB peptide-MHC binding, purified MHC/direct/fluorescence; filed as Kd, often an IC50 or EC50 that approximates it; bounds were set here for any values at or beyond the usual limits of such assays
Details: source organism: Yersinia enterocolitica
measurement-name: Kd (µM)
Answers are plain numbers, in µM.

**Query** Requested field: Kd. Item: GYGRVNAGK
**Result** 10.3

====

Molecular target: HLA-A*02:03
Assay: IEDB peptide-MHC binding, purified MHC/direct/fluorescence; filed as Kd, often an IC50 or EC50 that approximates it; bounds were set here for any values at or beyond the usual limits of such assays
Settings: source organism: Escherichia coli O157:H7 str. EC869
pKd: −log10 of the molar value.
measurement-name: pKd

**Query** I am curious: what pKd value has been reported for YGSWFGLIY ?
**Result** ≤ 4.70

====

Target: HLA-C*15:02
Test: IEDB peptide-MHC binding, purified MHC/direct/fluorescence; filed as Kd, often an IC50 or EC50 that approximates it; bounds were set here for any values at or beyond the usual limits of such assays
Settings: source organism: Bacillus anthracis str. A0488
measurement-name: Kd
Answer by giving the amount and then stating its unit.

**Query** Lookup: Kd / HLA-C*15:02 / RFFKHFMSL
**Result** 1570 nM

====

Biological target: HLA-C*12:03
Assay: IEDB peptide-MHC binding, purified MHC/direct/fluorescence; filed as Kd, often an IC50 or EC50 that approximates it; bounds were set here for any values at or beyond the usual limits of such assays
Details: source organism: Brucella abortus bv. 1 str. 9-941
measurement-name: Kd (nM)
One number for each entry, in nM.

**Query** Given KLYERNTAF , state its recorded Kd.
**Result** 266

====

Biological target: HLA-A*30:01
Assay: IEDB peptide-MHC binding, purified MHC/competitive/radioactivity; filed as Kd, often an IC50 or EC50 that approximates it; bounds were set here for any values at or beyond the usual limits of such assays
Details: source organism: Lassa virus Josiah
measurement-name: pKd
Numbers only, as −log10 of the molar value.

| chain | pKd |
| --- | --- |
| SSGCYIHFF | 5.16 |

// below: pKd requested for another sequence
**Query** Request - read-out pKd | tested on HLA-A*30:01 | sequence ITEMLQKEY
**Result** 5.32

====

Target: HLA-B*58:01
Test: IEDB peptide-MHC binding, purified MHC/direct/fluorescence; filed as Kd, often an IC50 or EC50 that approximates it; bounds were set here for any values at or beyond the usual limits of such assays
Details: source organism: Vibrio vulnificus YJ016
pKd: −log10 of the molar value.
measurement-name: pKd

**Query** So what pKd did KRFYQTVGF get with HLA-B*58:01?
**Result** ≤ 4.70

====

Molecular target: HLA-A*33:01
Test: IEDB peptide-MHC binding, purified MHC/competitive/radioactivity; filed as Kd, often an IC50 or EC50 that approximates it; bounds were set here for any values at or beyond the usual limits of such assays
Conditions: source organism: Mammarenavirus lassaense
pKd: −log10 of the molar value.
measurement-name: pKd

**Query** Please look up its pKd: VCSFYADPK
**Result** ≤ 4.11

====

Target: HLA-A*02:16
Test: IEDB peptide-MHC binding, purified MHC/competitive/fluorescence; filed as Kd, often an IC50 or EC50 that approximates it; bounds were set here for any values at or beyond the usual limits of such assays
Conditions: source organism: Human immunodeficiency virus type 1 (ELI ISOLATE)
measurement-name: Kd (nM)
Numbers only, in nM.

**Query** Request - read-out Kd | tested on HLA-A*02:16 | sequence SLGQHIYET
**Result** 6

====

Target: HLA-B*07:02
Assay: IEDB peptide-MHC binding, purified MHC/direct/fluorescence; filed as Kd, often an IC50 or EC50 that approximates it; bounds were set here for any values at or beyond the usual limits of such assays
Conditions: source organism: Pseudomonas aeruginosa UCBPP-PA14
pKd: −log10 of the molar value.
measurement-name: pKd

**Query** What value of pKd has been reported for the following sequence? RTGTRLLGR
**Result** ≤ 4.70

====

Molecular target: HLA-B*08:01
Assay: IEDB peptide-MHC binding, purified MHC/direct/fluorescence; filed as Kd, often an IC50 or EC50 that approximates it; bounds were set here for any values at or beyond the usual limits of such assays
Settings: source organism: Brucella abortus
pKd: −log10 of the molar value.
measurement-name: pKd

**Query** Identify the measured pKd of GRKTPLLCF for HLA-B*08:01.
**Result** ≤ 4.70

====

Target: HLA-A*02:11
Experiment: IEDB peptide-MHC binding, purified MHC/direct/fluorescence; filed as Kd, often an IC50 or EC50 that approximates it; bounds were set here for any values at or beyond the usual limits of such assays
Conditions: source organism: Sudan ebolavirus
measurement-name: Kd

**Query** Request the reported Kd associated with TMMRHRREL
**Result** ≥ 20 µM

====

Molecular target: HLA-A*01:01
Assay: IEDB peptide-MHC binding, purified MHC/competitive/radioactivity; filed as Kd, often an IC50 or EC50 that approximates it; bounds were set here for any values at or beyond the usual limits of such assays
Details: source organism: Mammarenavirus choriomeningitidis
measurement-name: pKd
Numbers only, as −log10 of the molar value.

**Query** Given the entry KTGESSRSY , report its measured pKd.
**Result** 5.44
